TGI listing for selected compounds.
- System: SR leukemia
- protocol-details: NCI tumour cell line growth inhibition, 48 h

Recorded results for 4 compounds are shown here.
{"compound": "C=C1c2nc3ccccc3n2C=C(c2ccc(C)cc2)N1c1ccc(OC)cc1", "target": "SR leukemia", "TGI": "19.8 µM"}
{"compound": "Oc1ccc(Cl)cc1C=Nc1cnc2ccccc2c1", "target": "SR leukemia", "TGI": "> 100 µM"}
{"compound": "O=c1[nH]ccc(CNC23CC4CC(CC(C4)C2)C3)c1O", "target": "SR leukemia", "TGI": "> 100 µM"}
{"compound": "CC(=O)[CH-]C(C)=O.CC(=O)[CH-]C(C)=O.[O-]c1ccccc1.[O-]c1ccccc1.[Ti+4]", "target": "SR leukemia", "TGI": "> 100 µM"}

## Task Quick check: TGI of CCCCCCCC(=O)OCC/C=C/C1OC1C1OC(=O)/C=C\C=C\C(=O)N(C(C)=O)C(=O)/C=C(/C)CCC2OC2C1OC(=O)NC(C)=O (centres undefined) ?
## Result > 25 µM

## Task Quick check: TGI of `Cc1ccccc1NC(=O)O/N=C(\Cl)C(C)C` ?
## Result > 100 µM

## Task Quick check: TGI of COC1/C=C/C(C)C(O)CC(O)/C=C/C(C)C(C(C)C(OC)C(C)CCC(=O)C(C)C(C/C=C/N(C)C=O)OC)OC(=O)/C=C/C=C(\C)CC(OC)CC2=CC(=O)O[C@@H](C(C)C(OC)C1)[C@H]2O (some centres undefined) ?
## Result 24.6 µM

## Task Quick check: TGI of N[C@@H](CCC(=O)NC(Cc1ccccc1)C(=O)NCP(=O)(O)O)C(=O)O (some centres undefined) ?
## Result > 100 µM

## Task Quick check: TGI of `Clc1ccc2c(c1)N(CCCN1CCCC13CCCCC3)c1ccccc1S2` ?
## Result 17.5 µM

###

- System: HOP-92 NSCLC
- protocol-details: NCI tumour cell line growth inhibition, 48 h
value-type: TGI

{"molecule": "c1ccc2c(c1)[nH]c1c2nc2ccccn21", "target": "HOP-92 NSCLC", "endpoint-result": "> 100 µM"}
{"molecule": "CC(=O)[CH-]C(C)=O.CC(=O)[CH-]C(C)=O.[O-]c1ccccc1.[O-]c1ccccc1.[Ti+4]", "target": "HOP-92 NSCLC", "endpoint-result": "> 100 µM"}
{"molecule": "O=c1c2cccnc2ncn1CCCN1CCCCC1", "target": "HOP-92 NSCLC", "endpoint-result": "> 100 µM"}
{"molecule": "COc1ccc(CCNC(=O)Cc2ccccc2CO)cc1OC", "target": "HOP-92 NSCLC", "endpoint-result": "> 100 µM"}

## Task Recorded TGI for `COc1cc2c(cc1C)NC(=O)/C2=C/c1ccnc2ccccc12` with HOP-92 NSCLC, please?
## Result > 50 µM

## Task Recorded TGI for `O=C(Nc1n[nH]c2cc(-c3cc(F)ccc3F)ccc12)C1CC1` with HOP-92 NSCLC, please?
## Result > 25 µM

## Task Recorded TGI for `CC(C)(C)C(=O)Nc1c(C=O)ccc2[nH]cnc12` with HOP-92 NSCLC, please?
## Result > 100 µM

## Task Recorded TGI for COC1CC(C)(NC(=O)C(F)(F)F)C2OC(c3ccccc3)OCC2O1 (stereo unspecified) with HOP-92 NSCLC, please?
## Result > 100 µM

## Task Recorded TGI for `O=C(CC1=Nc2nnc(CCCCCCCc3nnc4n3C(=O)C(CC(=O)c3ccc5ccccc5c3)=N4)n2C1=O)c1ccc2ccccc2c1` with HOP-92 NSCLC, please?
## Result > 100 µM

## Task Recorded TGI for COC1=CC(=O)O/C1=C(\OC)C1OC1c1ccccc1 (stereo unspecified) with HOP-92 NSCLC, please?
## Result > 100 µM

## Task Recorded TGI for N#Cc1ccccc1NC(=O)C(=O)C(C(=O)c1ccccc1F)C1OC(=O)c2ccccc21 (stereo unspecified) with HOP-92 NSCLC, please?
## Result > 100 µM

## Task Recorded TGI for `N#C/C(=C\c1ccc2[nH]ccc2c1)C(=O)NCCCCNC(=O)/C(C#N)=C/c1ccc2[nH]ccc2c1` with HOP-92 NSCLC, please?
## Result > 31.6 µM

## Task Recorded TGI for `Cc1n[nH]c2ccccc2c1=O` with HOP-92 NSCLC, please?
## Result > 100 µM

## Task Recorded TGI for COC1/C=C/C(C)C(O)CC(O)/C=C/C(C)C(C(C)C(OC)C(C)CCC(=O)C(C)C(C/C=C/N(C)C=O)OC)OC(=O)/C=C/C=C(\C)CC(OC)CC2=CC(=O)O[C@@H](C(C)C(OC)C1)[C@H]2O (stereo partly specified) with HOP-92 NSCLC, please?
## Result 0.0106 µM

## Task Recorded TGI for `Nc1cc2c3c(cccc3c1)C(=O)N(CCN1CCCC1)C2=O` with HOP-92 NSCLC, please?
## Result > 54.4 µM

## Task Recorded TGI for `O=C1C(=O)c2c(nc3ccc(C(F)(F)F)cn23)-c2ccccc21` with HOP-92 NSCLC, please?
## Result 0.773 µM

## Task Recorded TGI for `C[C@@]1(F)[C@H](O)[C@@H](CO)O[C@H]1n1ccc(=O)[nH]c1=O` with HOP-92 NSCLC, please?
## Result > 100 µM

## Task Recorded TGI for `NC(=O)[C@H](Cc1ccc(O)cc1)Nc1c(O)c2c(c(O)c1Cl)C(=O)C=CC2=O` with HOP-92 NSCLC, please?
## Result 4.72 µM

## Task Recorded TGI for `C[n+]1cccc2ccc3cccnc3c21` with HOP-92 NSCLC, please?
## Result > 100 µM

## Task Recorded TGI for `CCN(CC)C(=S)SSC(C)C` with HOP-92 NSCLC, please?
## Result 36.1 µM

## Task Recorded TGI for `CC(=O)N1[C@H](C(=O)O)CS[C@H]1c1ccc(F)cc1` with HOP-92 NSCLC, please?
## Result > 100 µM

## Task Recorded TGI for `CCOc1ccc(NC(=O)/C(CC(=O)c2c[n+](=O)c3ccccc3n2[O-])=N\OCCCc2ccccc2)cc1` with HOP-92 NSCLC, please?
## Result 99.6 µM

## Task Recorded TGI for `N/N=C(/Cc1ccccc1)NNO` with HOP-92 NSCLC, please?
## Result > 100 µM

## Task Recorded TGI for `COc1cc(C)c2c(c1)CN1CN2Cc2cc(OC)cc(C)c21` with HOP-92 NSCLC, please?
## Result > 100 µM

## Task Recorded TGI for `C/C(=N/NC(=S)Nc1ccccc1)c1nc2ccc(Cl)cc2[nH]1` with HOP-92 NSCLC, please?
## Result 1.52 µM

## Task Recorded TGI for COc1cc2c[n+]3c4c(c2c(OC)c1OC)CCCC4CC3 (stereo unspecified) with HOP-92 NSCLC, please?
## Result > 100 µM

###

- Test system: HCT-116 colon
- protocol-details: NCI tumour cell line growth inhibition, 48 h
value-type: TGI

Recorded results for 4 compounds are shown here.
{"compound": "Cn1/c(=N\\N=C2\\C=C3CCCCC3(C)CC2)sc2ccccc21 (stereo not given)", "TGI": "> 100 µM"}
{"compound": "CCOC(=O)Nc1ccc2nc(-c3cscn3)[nH]c2c1", "TGI": "> 100 µM"}
{"compound": "COc1ccc(-n2cc(-c3ccc(OC)c(OC)c3)[nH]c2=O)cc1", "TGI": "> 100 µM"}
{"compound": "O=c1c2cc(Br)cc(Br)c2[nH]c(=S)n1-c1ccc(N=Nc2ccc(O)c3cccnc23)cc1", "TGI": "> 100 µM"}

## Task Quick check: TGI of C=C1CCC[C@@H](C)C(O)[C@@H]2OC(=O)C(=C)[C@@H]2C[C@@H](OC(C)=O)[C@@]2(C)CC[C@@H]1O2 (stereo not given in full) ?
## Result 13.8 µM

## Task Quick check: TGI of `CC1(C)CC(C)(C)c2cc(NC(=S)Nc3ccc([N+](=O)[O-])cc3)ccc2S1` ?
## Result > 100 µM

## Task Quick check: TGI of `Cc1ccccc1NC(=O)CSc1nnc(-c2ccc(N=Cc3ccc(Cl)cc3)cc2)o1` ?
## Result > 100 µM

## Task Quick check: TGI of CC1CCC2C(C)C(=O)OC2C2(C)C(=O)C=CC12 (stereo not given) ?
## Result > 10 µM

## Task Quick check: TGI of `COc1ccc2[nH]c(C(=O)N3CCN(C(=O)OCc4ccc5c(Cl)cc(Cl)c(O)c5n4)CC3)cc2c1` ?
## Result 1.35 µM

## Task Quick check: TGI of `Cc1cccc(C)c1NC(=O)C(=O)Cc1nc2ccccc2s1` ?
## Result > 100 µM

###

- Tested on: 786-0 renal
- protocol-details: NCI tumour cell line growth inhibition, 48 h
value-type: TGI

{"compound": "Cc1ccccc1NC(=O)CSc1nnc(-c2ccc(N=Cc3ccc(Cl)cc3)cc2)o1", "value-type": "TGI", "endpoint-result": "> 100 µM"}

## Task Recorded TGI for Oc1ccc(C(O)C2CCCCN2)cc1O (stereo unspecified) with 786-0 renal, please?
## Result 35.2 µM

## Task Recorded TGI for CCN1CC2(C)CCC(OC)C34C5CC6CCC(O)(C5C(=O)O6)C(C(O)C23)C14 (stereo unspecified) with 786-0 renal, please?
## Result > 100 µM

## Task Recorded TGI for `COc1cc2c(cc1C)NC(=O)/C2=C/c1ccnc2ccccc12` with 786-0 renal, please?
## Result > 50 µM

## Task Recorded TGI for COC(=O)C1CC(c2ccc(OC)c(OC)c2)OC1=O (mixture of isomers) with 786-0 renal, please?
## Result > 100 µM

## Task Recorded TGI for COc1cc2c(cc1O)C1Cc3ccc(OC)c(O)c3C[N+]1(C)CC2 (stereo unspecified) with 786-0 renal, please?
## Result > 100 µM
